Data provenance is ChEMBL document CHEMBL1201862.

- System: KM12
- ASSAY NOTES: NCI tumour cell line growth inhibition, 48 h
Calls of active or inactive are those of the source. No stated cut-off is given here; in the data, active = GI50 up to about 1.1 µM and inactive = higher.
// values below are reported GI50

# COMPOUND, GI50
data = [
    ("C/C(CC(=O)Nc1ccc(Cl)c(Cl)c1)=N/NC(=O)C[n+]1ccccc1", "88.7 µM (inactive)"),
    ("CC1(C)CCCC2OC2CCC(C)(C)C1=O (stereo not drawn)", "> 100 µM (inactive)"),
    ("O=C(Nc1ccc(C2=NCCN2)cc1)c1cncc(C(=O)Nc2ccc(C3=NCCN3)cc2)c1", "> 100 µM (inactive)"),
    ("N#Cc1c(-c2ccc(Cl)cc2)cc(-c2ccc(Nc3ccnc4cc(Cl)ccc34)cc2)[nH]c1=O", "> 61 µM (inactive)"),
    ("C[N+]12C=CC=C1C(N1CCCC1)c1scc(-c3ccccc3)c12 (stereo not drawn)", "8.55 µM (inactive)"),
    ("CC[N+]1(C)CCC(O)(/C=C/c2ccc(OC)cc2)C(C(=O)/C=C/c2ccc(OC)cc2)C1 (stereo not drawn)", "4.13 µM (inactive)"),
    ("CC1(C)CCOC(=O)C(Cl)CC1Cl (stereo not drawn)", "> 100 µM (inactive)"),
    ("COc1cc2c(cc1OC)C1c3ccccc3CCN1CC2 (stereo not drawn)", "> 100 µM (inactive)"),
    ("Cn1nc(Cc2ccc(Cl)cc2)n(N)c1=O", "> 100 µM (inactive)"),
    ("COc1ccc2c(c1)CN1C(=N2)CSC1c1ccccc1Cl (stereo not drawn)", "18 µM (inactive)"),
    ("N=C(N)NCCCC(NC(=O)OCCCCn1ccc(N)nc1=O)C(=O)O (stereo not drawn)", "> 100 µM (inactive)"),
    ("Oc1ccc(/N=N/c2ccc(Cl)cc2)cc1", "13 µM (inactive)"),
    ("CC(=O)OCC12C(OC(C)=O)C[C@@H](C)C3(CC(c4ccoc4)OC3=O)C1CCC(OC(C)=O)C21CO1 (stereo partly drawn)", "> 100 µM (inactive)"),
    ("OC1CCN(c2c3ccccc3nc3ccccc23)CC1", "37.2 µM (inactive)"),
    ("COc1ccc(/C=N/N=C(\\N)NO)c(OC)c1", "30.3 µM (inactive)"),
    ("CC(C)(C)C1=CC(O)(c2c3ccccc3c(C3(O)C=C(C(C)(C)C)C(=O)C(C(C)(C)C)=C3)c3ccccc23)C=C(C(C)(C)C)C1=O", "> 100 µM (inactive)"),
    ("Cc1csc(NNC(N)=O)n1", "> 100 µM (inactive)"),
    ("O=C1NC(Cc2ccccc2)C(=O)N2CCCC12 (stereo not drawn)", "> 100 µM (inactive)"),
]
